Target: human TLR9 (Homo sapiens)
Construct: expressed in transfected cells; host or cells: HEK293 (ATCC No. CRP-1573 [sic])
Sequence (Q9NR96 26-1032): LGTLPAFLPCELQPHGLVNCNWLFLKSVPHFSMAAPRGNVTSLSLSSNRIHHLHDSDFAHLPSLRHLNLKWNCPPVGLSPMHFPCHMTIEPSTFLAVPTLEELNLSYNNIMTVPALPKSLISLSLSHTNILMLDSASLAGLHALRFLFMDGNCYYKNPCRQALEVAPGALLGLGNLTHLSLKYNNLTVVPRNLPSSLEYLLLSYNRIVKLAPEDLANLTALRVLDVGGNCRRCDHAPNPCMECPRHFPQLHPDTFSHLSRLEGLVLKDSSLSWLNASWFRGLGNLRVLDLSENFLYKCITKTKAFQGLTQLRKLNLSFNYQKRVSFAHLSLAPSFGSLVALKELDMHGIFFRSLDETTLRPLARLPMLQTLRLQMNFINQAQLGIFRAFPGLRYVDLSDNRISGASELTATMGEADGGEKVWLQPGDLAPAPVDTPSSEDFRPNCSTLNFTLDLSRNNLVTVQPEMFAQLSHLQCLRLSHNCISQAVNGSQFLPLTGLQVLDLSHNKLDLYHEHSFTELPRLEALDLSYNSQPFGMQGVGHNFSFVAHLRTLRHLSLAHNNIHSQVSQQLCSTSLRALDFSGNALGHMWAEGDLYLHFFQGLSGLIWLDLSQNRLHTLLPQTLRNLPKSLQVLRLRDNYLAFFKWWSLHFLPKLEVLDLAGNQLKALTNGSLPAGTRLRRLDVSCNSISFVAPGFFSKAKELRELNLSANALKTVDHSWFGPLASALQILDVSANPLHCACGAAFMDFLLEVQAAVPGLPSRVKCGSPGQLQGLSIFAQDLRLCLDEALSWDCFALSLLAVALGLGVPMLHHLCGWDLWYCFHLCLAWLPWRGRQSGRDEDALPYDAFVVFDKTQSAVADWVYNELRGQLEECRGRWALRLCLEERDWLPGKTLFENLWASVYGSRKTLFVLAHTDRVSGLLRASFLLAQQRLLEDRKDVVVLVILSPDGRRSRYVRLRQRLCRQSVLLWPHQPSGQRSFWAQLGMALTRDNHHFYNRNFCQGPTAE
Experiment: Primary assay: HEK/TLR9 activation (NF-kB luciferase reporter, Oligo CpG 2006 stimulation)
Type: cell-based
Details: HEK293 transfected with human TLR9 and NF-kB luciferase; compound 30 min before Oligo CpG 2006; overnight; read-out: HEK/TLR9 IC50
pIC50: −log10 of the molar value.
Classification field: enter y for pIC50 values not below 8, n for values below it.

INSERT INTO assay_data (compound, group) VALUES
  ('CCCN(C)CCCOc1ccc(-c2nc3ccc(OCCCN(C)CCC)cc3o2)cc1 [Compound 29]', 'n'),
  ('COCCN(C)CCCOc1ccc(-c2nc3ccc(OCCCN(C)CCOC)cc3o2)cc1 [Compound 18]', 'n'),
  ('CN(C)CCCOCCCN(C)CCCOc1ccc(-c2nc3ccc(OCCCN(C)CCCOCCCN(C)C)cc3o2)cc1 [Compound 37]', 'n'),
  ('CN(C)[C@H]1CCN(CCCOc2ccc(-c3nc4ccc(OCCCN5CC[C@H](N(C)C)C5)cc4o3)cc2)C1 [Compound 17]', 'y'),
  ('CN1CCN(c2ccc(CNCCCOc3ccc(-c4nc5ccc(OCCCNCc6ccc(N7CCN(C)CC7)cc6)cc5o4)cc3)cc2)CC1 [Compound 11]', 'y');

###

Target: human TLR7 (Homo sapiens, UniProt Q9NYK1)
Sequence (Q9NYK1 27-1049): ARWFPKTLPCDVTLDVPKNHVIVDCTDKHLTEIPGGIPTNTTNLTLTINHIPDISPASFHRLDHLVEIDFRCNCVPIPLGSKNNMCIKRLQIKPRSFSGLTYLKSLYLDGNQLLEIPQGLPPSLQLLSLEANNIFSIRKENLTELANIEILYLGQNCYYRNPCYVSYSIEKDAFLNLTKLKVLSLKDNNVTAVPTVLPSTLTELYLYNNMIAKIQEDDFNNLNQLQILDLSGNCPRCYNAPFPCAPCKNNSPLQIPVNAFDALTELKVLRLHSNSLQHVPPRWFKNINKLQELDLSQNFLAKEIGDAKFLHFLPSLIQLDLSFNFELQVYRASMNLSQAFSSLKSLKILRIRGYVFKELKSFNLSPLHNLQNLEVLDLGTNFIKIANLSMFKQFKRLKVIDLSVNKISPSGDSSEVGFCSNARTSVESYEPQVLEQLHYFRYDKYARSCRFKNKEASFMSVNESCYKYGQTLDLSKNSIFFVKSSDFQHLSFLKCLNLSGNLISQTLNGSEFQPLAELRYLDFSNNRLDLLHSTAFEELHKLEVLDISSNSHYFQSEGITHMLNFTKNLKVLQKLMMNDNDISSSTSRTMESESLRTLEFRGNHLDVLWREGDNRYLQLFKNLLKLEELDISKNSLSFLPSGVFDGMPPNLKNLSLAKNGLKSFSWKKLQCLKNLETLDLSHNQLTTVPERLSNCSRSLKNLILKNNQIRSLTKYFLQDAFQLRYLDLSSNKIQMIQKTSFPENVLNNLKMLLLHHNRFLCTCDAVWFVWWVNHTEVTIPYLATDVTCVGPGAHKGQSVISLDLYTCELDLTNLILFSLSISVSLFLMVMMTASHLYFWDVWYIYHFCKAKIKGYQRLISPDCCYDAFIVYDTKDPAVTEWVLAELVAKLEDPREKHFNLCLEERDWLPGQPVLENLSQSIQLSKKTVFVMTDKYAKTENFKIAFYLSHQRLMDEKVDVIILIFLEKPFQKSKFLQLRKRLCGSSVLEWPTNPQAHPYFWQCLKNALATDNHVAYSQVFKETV
Assay: HEK/TLR7 activation assay (R848 stimulation)
Settings: HEK cells transfected with human TLR7
pIC50: −log10 of the molar value.
readout: pIC50

INSERT INTO results (compound, system_name, readout, comparison_symbol, reported) VALUES
  ('c1cc(-c2nc3ccc(OCCCN4CCCC4)cc3o2)ccc1OCCCN1CCCC1', 'human TLR7 (Homo sapiens, UniProt Q9NYK1)', 'pIC50', '=', 5.81),
  ('CCN(CC)CCN(C)CCCOc1ccc(-c2nc3ccc(OCCCN(C)CCN(CC)CC)cc3o2)cc1', 'human TLR7 (Homo sapiens, UniProt Q9NYK1)', 'pIC50', '=', 6.36),
  ('CN(C)CCCOc1ccc2nc(-c3ccccc3OCCCN(C)C)oc2c1', 'human TLR7 (Homo sapiens, UniProt Q9NYK1)', 'pIC50', '=', 5.74),
  ('c1cc(-c2nc3ccc(OCCCN4CCC[C@H]4CN4CCCC4)cc3o2)ccc1OCCCN1CCC[C@H]1CN1CCCC1', 'human TLR7 (Homo sapiens, UniProt Q9NYK1)', 'pIC50', '=', 6.22),
  ('CCCN(C)CCCOc1ccc(-c2nc3ccc(OCCCN(C)CCC)cc3o2)cc1', 'human TLR7 (Homo sapiens, UniProt Q9NYK1)', 'pIC50', '=', 6.11),
  ('COCCN(C)CCCOc1ccc(-c2nc3ccc(OCCCN(C)CCOC)cc3o2)cc1', 'human TLR7 (Homo sapiens, UniProt Q9NYK1)', 'pIC50', '=', 5.85),
  ('CN(C)CCN(C)CCCOc1ccc(-c2nc3ccc(OCCCN(C)CCN(C)C)cc3o2)cc1', 'human TLR7 (Homo sapiens, UniProt Q9NYK1)', 'pIC50', '=', 6.30),
  ('CN(C)CCCCCOc1ccc(-c2nc3ccc(OCCCCCN(C)C)cc3o2)cc1', 'human TLR7 (Homo sapiens, UniProt Q9NYK1)', 'pIC50', '=', 5.85),
  ('CN(C)CCCOc1ccc(-c2nc3ccc(OCCCN(C)C)cc3o2)cc1', 'human TLR7 (Homo sapiens, UniProt Q9NYK1)', 'pIC50', '=', 5.66),
  ('c1cc(CN2CCOCC2)ccc1CNCCCOc1ccc(-c2nc3ccc(OCCCNCc4ccc(CN5CCOCC5)cc4)cc3o2)cc1', 'human TLR7 (Homo sapiens, UniProt Q9NYK1)', 'pIC50', '=', 6.34),
  ('CCOCCN1CCN(CCCOc2ccc(-c3nc4ccc(OCCCN5CCN(CCOCC)CC5)cc4o3)cc2)CC1', 'human TLR7 (Homo sapiens, UniProt Q9NYK1)', 'pIC50', '=', 5.65),
  ('CC(C)(CN1CCOCC1)NCCCOc1ccc(-c2nc3ccc(OCCCNC(C)(C)CN4CCOCC4)cc3o2)cc1', 'human TLR7 (Homo sapiens, UniProt Q9NYK1)', 'pIC50', '=', 6.46),
  ('c1cc(-c2nc3ccc(OCCCN4CCC(N5CCCC5)CC4)cc3o2)ccc1OCCCN1CCC(N2CCCC2)CC1', 'human TLR7 (Homo sapiens, UniProt Q9NYK1)', 'pIC50', '=', 5.74),
  ('CN(C)CCOc1ccc(-c2nc3ccc(OCCN(C)C)cc3o2)cc1', 'human TLR7 (Homo sapiens, UniProt Q9NYK1)', 'pIC50', '=', 5.11),
  ('c1cc(-c2nc3ccc(OC4CCNC4)cc3o2)ccc1OC1CCNC1 (stereo not drawn) [Comparator, reference compound]', 'human TLR7 (Homo sapiens, UniProt Q9NYK1)', 'pIC50', '=', 5.57),
  ('CCNCCCOc1ccc(-c2nc3ccc(OCCCNCC)cc3o2)cc1', 'human TLR7 (Homo sapiens, UniProt Q9NYK1)', 'pIC50', '=', 5.07),
  ('c1ccc(CNCCCOc2ccc(-c3nc4ccc(OCCCNCc5ccccn5)cc4o3)cc2)nc1', 'human TLR7 (Homo sapiens, UniProt Q9NYK1)', 'pIC50', '=', 5.91),
  ('c1cc(-c2nc3ccc(OCCCN4CCCCC4)cc3o2)ccc1OCCCN1CCCCC1', 'human TLR7 (Homo sapiens, UniProt Q9NYK1)', 'pIC50', '=', 5.94),
  ('CCN(C)CCCOc1ccc(-c2nc3ccc(OCCCN(C)CC)cc3o2)cc1', 'human TLR7 (Homo sapiens, UniProt Q9NYK1)', 'pIC50', '=', 5.91),
  ('COCCNCCCOc1ccc(-c2nc3ccc(OCCCNCCOC)cc3o2)cc1', 'human TLR7 (Homo sapiens, UniProt Q9NYK1)', 'pIC50', '=', 5.88),
  ('CN1CCN(c2ccc(CNCCCOc3ccc(-c4nc5ccc(OCCCNCc6ccc(N7CCN(C)CC7)cc6)cc5o4)cc3)cc2)CC1', 'human TLR7 (Homo sapiens, UniProt Q9NYK1)', 'pIC50', '=', 6.33),
  ('CN(C)CCCN(C)CCCOc1ccc(-c2nc3ccc(OCCCN(C)CCCN(C)C)cc3o2)cc1', 'human TLR7 (Homo sapiens, UniProt Q9NYK1)', 'pIC50', '=', 6.01),
  ('CCN(CC)CCNCCCOc1ccc(-c2nc3ccc(OCCCNCCN(CC)CC)cc3o2)cc1', 'human TLR7 (Homo sapiens, UniProt Q9NYK1)', 'pIC50', '=', 6.11),
  ('c1cc(N2CCN(CCCOc3ccc(-c4nc5ccc(OCCCN6CCN(c7ccncc7)CC6)cc5o4)cc3)CC2)ccn1', 'human TLR7 (Homo sapiens, UniProt Q9NYK1)', 'pIC50', '=', 5.96),
  ('CN(C)CCCOc1cccc(-c2nc3ccc(OCCCN(C)C)cc3o2)c1', 'human TLR7 (Homo sapiens, UniProt Q9NYK1)', 'pIC50', '=', 5.70),
  ('CN(C)CCCOc1ccc2nc(-c3ccc(OCCCN(C)CCOCCOCCN(C)C)cc3)oc2c1', 'human TLR7 (Homo sapiens, UniProt Q9NYK1)', 'pIC50', '=', 5.85),
  ('CN(C)[C@H]1CCN(CCCOc2ccc(-c3nc4ccc(OCCCN5CC[C@H](N(C)C)C5)cc4o3)cc2)C1', 'human TLR7 (Homo sapiens, UniProt Q9NYK1)', 'pIC50', '=', 6.77),
  ('CN(C)CCCCN(C)CCCOc1ccc(-c2nc3ccc(OCCCN(C)CCCCN(C)C)cc3o2)cc1', 'human TLR7 (Homo sapiens, UniProt Q9NYK1)', 'pIC50', '<', 5.60),
  ('CN(C)CCCOc1ccc2nc(-c3ccc(OCCCN(C)CCCN(C)C)cc3)oc2c1', 'human TLR7 (Homo sapiens, UniProt Q9NYK1)', 'pIC50', '=', 6.10),
  ('CN(C)CCOCCN(C)CCCOc1ccc(-c2nc3ccc(OCCCN(C)CCOCCN(C)C)cc3o2)cc1', 'human TLR7 (Homo sapiens, UniProt Q9NYK1)', 'pIC50', '<', 5.60);
